testedSystem: Sialic acid-binding Ig-like lectin 9 (Homo sapiens) (UniProt Q9Y336)
Sequence (Q9Y336 whole entry): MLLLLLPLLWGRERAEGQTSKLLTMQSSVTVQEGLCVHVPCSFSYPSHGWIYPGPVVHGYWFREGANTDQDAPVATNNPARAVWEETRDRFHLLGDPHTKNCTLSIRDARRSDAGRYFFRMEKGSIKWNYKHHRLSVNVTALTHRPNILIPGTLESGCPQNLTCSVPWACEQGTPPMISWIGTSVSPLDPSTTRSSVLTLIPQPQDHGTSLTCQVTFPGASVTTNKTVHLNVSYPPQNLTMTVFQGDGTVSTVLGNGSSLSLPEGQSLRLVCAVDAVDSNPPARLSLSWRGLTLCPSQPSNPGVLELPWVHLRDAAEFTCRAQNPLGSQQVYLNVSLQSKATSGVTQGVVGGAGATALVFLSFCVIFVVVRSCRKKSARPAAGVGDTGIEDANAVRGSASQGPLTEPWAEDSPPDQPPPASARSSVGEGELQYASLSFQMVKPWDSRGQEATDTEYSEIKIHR
protocolDetails: Hs-Siglec9 ALPHAscreen SOP 20170721
Design: scale not given: direction of the effect not stated beside the values
reportedConditions: 10 µM
measuredParameter: Percent Effect (%)

- c1ccc(CN2C[C@@H]3OCCN(CC4CCCO4)[C@@H]3C2)nc1 (some centres not stated): 1.76
- CN(C)C(=O)CN1CCN(C(=O)Cc2csc(-c3ncccn3)n2)CC1: 12
- O=C(N[C@H]1CN[C@H]2CCCO[C@H]21)c1cscn1: 5.27
- Cc1nc(CN2CCOCC3(CCN(c4ncccn4)C3)C2)cs1 (configuration not stated): -0.742
- O=C1CSC(c2ccsc2)c2c(n(C3CCOCC3)[nH]c2=O)N1 (configuration not stated): 3.3
- Cc1nc(N(C)C)nc2c1COCC21CCN(CC2CC2)C1 (configuration not stated): 1.53
- CC(C)=CCN1C[C@H]2CC[C@@H]1CN(C(=O)c1c[nH]c(=O)c(Cl)c1)C2: 1.06
- O=C(Cc1ccc(-n2cccn2)cc1)N1CCN2CCCCC2C1 (configuration not stated): 2.63
- O=C(Cc1csc(-c2ccco2)n1)N1CCN(CCO)CC1: 2.75
- Cc1cc(CN2C[C@@H]3COC[C@]3(CNC(=O)c3ccno3)C2)no1: 4.53
- Cc1noc(C)c1CN1C[C@H](OCC2CC2)[C@H]2OCCC[C@H]21: 5.64
- CCS(=O)(=O)N[C@@H]1CN(Cc2cc(C)on2)C[C@@H]2CCCO[C@@H]21: 19
- Cc1noc(C)c1CN1CC[C@H]2C[C@@H](c3ccncn3)O[C@@H]2C1: 1.24
- O=C(c1ccnnc1)N1C[C@@H]2OCCN(CCN3CCCC3)[C@@H]2C1: 4.92
- O=C(CN1CCN(C(=O)Cc2ccc3c(c2)OCCO3)CC1)NC1CC1: 0.674
- Cc1noc(C)c1CN1CC[C@@H]2O[C@@H](COCC(C)C)CC[C@@H]21: 5.58
- Cc1nc(C)c(CC(=O)N2C[C@@H]3CC[C@H](C2)N(CC2CCC2)C3)c(=O)[nH]1: 21.6
- c1ccc(N2CCCC3(CCN(Cc4nccs4)C3)C2)nc1 (configuration not stated): 3.73
- CC(c1ccc(F)cc1)N1CCN(Cc2ccc(C#N)cc2)CC1 (configuration not stated): 2.94
- c1ccc(CO[C@@H]2CO[C@@]3(CCN(Cc4ccccn4)C3)C2)nc1: 4.84
- c1ccc(CN2CCO[C@H]3[C@H](OCCN4CCCC4)CC[C@@H]32)nc1: 8.64
- O[C@@]1(c2ccccn2)CC[C@H]2CN(Cc3cccc(Cl)c3Cl)C[C@H]21: -0.828

Origin of the recorded values: ChEMBL document CHEMBL3988442
